target: UniProt P00734; experiment: Binding affinity for human alpha-thrombin
Endpoint: K ass

Query :: Give a short answer stating reported K ass for Brc1cc(Cc2c(-c3ccc(OCCN4CCCC4)cc3)sc3ccccc23)ccc1OCCN1CCCC1 .
Result :: 2.75e+07 l M-1

Query :: Give a short answer stating reported K ass for COc1cc(Cc2c(-c3ccc(OCCN4CCCC4)cc3)sc3ccccc23)ccc1OCCN1CCCC1 .
Result :: 1.22e+07 l M-1

Query :: Give a short answer stating reported K ass for FC(F)(F)c1cc(Cc2c(-c3ccc(OCCN4CCCC4)cc3)sc3ccccc23)ccc1OCCN1CCCC1 .
Result :: 2.4e+06 l M-1

Query :: Give a short answer stating reported K ass for O=[N+]([O-])c1cc(Cc2c(-c3ccc(OCCN4CCCC4)cc3)sc3ccccc23)ccc1OCCN1CCCC1 .
Result :: 1.02e+07 l M-1

Query :: Give a short answer stating reported K ass for CCCCc1cc(Cc2c(-c3ccc(OCCN4CCCC4)cc3)sc3ccccc23)ccc1OCCN1CCCC1 .
Result :: 420000 l M-1

Query :: Give a short answer stating reported K ass for Cc1cc(Cc2c(-c3ccc(OCCN4CCCC4)cc3)sc3ccccc23)ccc1OCCN1CCCC1 .
Result :: 2.42e+07 l M-1

Query :: Give a short answer stating reported K ass for CCc1cc(Cc2c(-c3ccc(OCCN4CCCC4)cc3)sc3ccccc23)ccc1OCCN1CCCC1 .
Result :: 7.27e+06 l M-1

Query :: Give a short answer stating reported K ass for O=S(=O)(Nc1cc(Cc2c(-c3ccc(OCCN4CCCC4)cc3)sc3ccccc23)ccc1OCCN1CCCC1)c1ccccc1 .
Result :: 220000 l M-1

Query :: Give a short answer stating reported K ass for Oc1cc(Cc2c(-c3ccc(OCCN4CCCC4)cc3)sc3ccccc23)ccc1OCCN1CCCC1 .
Result :: 1.1e+06 l M-1

Query :: Give a short answer stating reported K ass for CCCc1cc(Cc2c(-c3ccc(OCCN4CCCC4)cc3)sc3ccccc23)ccc1OCCN1CCCC1 .
Result :: 1.02e+06 l M-1

Query :: Give a short answer stating reported K ass for Brc1cc(OCCN2CCCC2)ccc1Cc1c(-c2ccc(OCCN3CCCC3)cc2)sc2ccccc12 .
Result :: 270000 l M-1

Query :: Give a short answer stating reported K ass for CC(=O)Nc1cc(Cc2c(-c3ccc(OCCN4CCCC4)cc3)sc3ccccc23)ccc1OCCN1CCCC1 .
Result :: 310000 l M-1

Query :: Give a short answer stating reported K ass for Nc1cc(Cc2c(-c3ccc(OCCN4CCCC4)cc3)sc3ccccc23)ccc1OCCN1CCCC1 .
Result :: 1.1e+06 l M-1

Query :: Give a short answer stating reported K ass for CCNc1cc(Cc2c(-c3ccc(OCCN4CCCC4)cc3)sc3ccccc23)ccc1OCCN1CCCC1 .
Result :: 290000 l M-1

Query :: Give a short answer stating reported K ass for CS(=O)(=O)Nc1cc(Cc2c(-c3ccc(OCCN4CCCC4)cc3)sc3ccccc23)ccc1OCCN1CCCC1 .
Result :: 410000 l M-1

Query :: Give a short answer stating reported K ass for Fc1cc(Cc2c(-c3ccc(OCCN4CCCC4)cc3)sc3ccccc23)ccc1OCCN1CCCC1 .
Result :: 4.87e+06 l M-1
